Assignment: determine reported RA patients responding (n = 39 tested) for the given sequences.
System: peripheral blood lymphocytes (PBL) of RA/JCA patients
Test Protocol: 6-days proliferation assay on PBLs of RA and JCA patients
Assay type: cell-based, human
Measurement Conditions: number of patients with PBL proliferation >2 times background; 15-mers at 1 μg/ml and 10 μ/ml
Ends that are not written are not given here.
Enter the number alone.

# input GET RA patients responding (n = 39 tested) | system: peripheral blood lymphocytes (PBL) of RA/JCA patients | item: SAFWPSLPSYLDAAY [SEQ ID NO: 71, SAFWPSLPSYLDAAY]
# output 4

# input GET RA patients responding (n = 39 tested) | system: peripheral blood lymphocytes (PBL) of RA/JCA patients | item: NAMLKSICEVLDLER [SEQ ID NO: 81, NAMLKSICEVLDLER]
# output 2

# input GET RA patients responding (n = 39 tested) | system: peripheral blood lymphocytes (PBL) of RA/JCA patients | item: SSFWPSLPSGVDAAY [SEQ ID NO: 73, SSFWPSLPSGVDAAY]
# output 4

----------
Assignment: determine reported IC50 for the given sequences.
Target Under Test: DRB1*0401 (Homo sapiens, UniProt P01903+P01911, A100K/A169T/F76Y/I96L/K127E/L162R/M171V/N62H/P40V/Q125Y/R42H/S133A/S149N/S66Y/V115G/V209L/W38E)
Test Protocol: MHC-peptide competition binding assay on isolated DRB1*0401 molecules
Measurement Conditions: DRB1*0401 1 μM, biotinylated HA-marker peptide 100 nM, peptide 0-256 μM; read-out: DRB1*0401 binding (IC50)
Ends that are not written are not given here.

# input Specify measured IC50 for QPLVQTAVTNIDRPK [SEQ ID NO: 77, QPLVQTAVTNIDRPK] .
# output 32 to 64 µM

# input Specify measured IC50 for EDLVGSASGDLDLGK [SEQ ID NO: 75, EDLVGSASGDLDLGK] .
# output 32 to 64 µM

# input Specify measured IC50 for TTTVSSFSLNVEYAI [SEQ ID NO: 80, TTTVSSFSLNVEYAI] .
# output 128 to 256 µM

# input Specify measured IC50 for MTSLKSVNGQIESLI [SEQ ID NO: 78, MTSLKSVNGQIESLI] .
# output 64 to 128 µM

# input Specify measured IC50 for NAMLKSICEVLDLER [SEQ ID NO: 81, NAMLKSICEVLDLER] .
# output > 256 µM

# input Specify measured IC50 for FFYFFTGSSQLEFDP [SEQ ID NO: 70, FFYFFTGSSQLEFDP] .
# output < 8 µM

# input Specify measured IC50 for SAFWPSLPSYLDAAY [SEQ ID NO: 71, SAFWPSLPSYLDAAY] .
# output 8 to 16 µM

# input Specify measured IC50 for SYRLRSPVISIDPPS [SEQ ID NO: 74, SYRLRSPVISIDPPS] .
# output 16 to 32 µM

# input Specify measured IC50 for SSFWPSLPSGVDAAY [SEQ ID NO: 73, SSFWPSLPSGVDAAY] .
# output 16 to 32 µM

# input Specify measured IC50 for QLLGVSASVPVEHRD [SEQ ID NO: 76, QLLGVSASVPVEHRD] .
# output 32 to 64 µM
